# System: TDF;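 also: TDF denotes transformed human dermal fibroblasts of mesenchymal origin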
# assay_overview: cell number relative to DMSO (% of DMSO); higher = more cells (less growth inhibition / toxicity)
# measurement_setup: concentration: 10 µM; 24 h
Label true (1) when cell number is at or above 100; anything below gets false (0).

Recorded results for 3 compounds are shown here.
compound="CCC1(c2ccc(N)cc2)CCC(=O)NC1=O (racemic)" assayed_system=TDF cat="true (1)"
compound="C[Se]CC(N)C(=O)O.Cl (centres undefined) [Se-(methyl)selenocysteine hydrochloride]" assayed_system=TDF cat="false (0)"
compound="CC(Cc1ccc2c(c1)OC(C(=O)[O-])(C(=O)[O-])O2)NCC(O)c1cccc(Cl)c1.[Na+].[Na+] (centres undefined)" assayed_system=TDF cat="true (1)"

Asked: Can CC(C)=CCCC1=CC(=O)c2c(O)ccc(O)c2C1=O be said to have cell number at or above 100?
Given back: false (0)

Asked: Please tell me: is the compound CC1=C2CC3C(CC=C4CC(O)CCC43C)C2CCC12OC1CC(C)CNC1C2C (centres undefined) at or over 100 in terms of cell number?
Given back: true (1)

Asked: Would you say N#CC(C#N)=Cc1cc(O)c(O)c(O)c1 shows cell number at minimum 100?
Given back: false (0)
